run parameters: in isopentanol, 313.15 K
quantity kind: solubility (mole fraction)

N[C@@H](CC(=O)N1CCn2c(nnc2C(F)(F)F)C1)Cc1cc(F)c(F)cc1F	0.0184

---

run parameters: in ethanol, 273.15 K
quantity kind: solubility (mole fraction)

N[C@@H](CC(=O)N1CCn2c(nnc2C(F)(F)F)C1)Cc1cc(F)c(F)cc1F	0.00768

---

run parameters: in ethanol, 288.15 K
quantity kind: solubility (mole fraction)

N[C@@H](CC(=O)N1CCn2c(nnc2C(F)(F)F)C1)Cc1cc(F)c(F)cc1F	0.0179

---

run parameters: in ethyl acetate, 323.15 K
quantity kind: solubility (mole fraction)

N[C@@H](CC(=O)N1CCn2c(nnc2C(F)(F)F)C1)Cc1cc(F)c(F)cc1F	0.0565

---

run parameters: in ethanol, 298.15 K
quantity kind: solubility (mole fraction)

N[C@@H](CC(=O)N1CCn2c(nnc2C(F)(F)F)C1)Cc1cc(F)c(F)cc1F	0.0298

---

run parameters: in ethyl acetate, 298.15 K
quantity kind: solubility (mole fraction)

N[C@@H](CC(=O)N1CCn2c(nnc2C(F)(F)F)C1)Cc1cc(F)c(F)cc1F	0.02

---

run parameters: in acetonitrile, 318.15 K
quantity kind: solubility (mole fraction)

N[C@@H](CC(=O)N1CCn2c(nnc2C(F)(F)F)C1)Cc1cc(F)c(F)cc1F	0.128

---

run parameters: in ethyl acetate, 283.15 K
quantity kind: solubility (mole fraction)

N[C@@H](CC(=O)N1CCn2c(nnc2C(F)(F)F)C1)Cc1cc(F)c(F)cc1F	0.0117

---

run parameters: in acetonitrile, 308.15 K
quantity kind: solubility (mole fraction)

N[C@@H](CC(=O)N1CCn2c(nnc2C(F)(F)F)C1)Cc1cc(F)c(F)cc1F	0.0888

---

run parameters: in isopropanol, 308.15 K
quantity kind: solubility (mole fraction)

N[C@@H](CC(=O)N1CCn2c(nnc2C(F)(F)F)C1)Cc1cc(F)c(F)cc1F	0.0139

---

run parameters: in water, 288.15 K
quantity kind: solubility (mole fraction)

N[C@@H](CC(=O)N1CCn2c(nnc2C(F)(F)F)C1)Cc1cc(F)c(F)cc1F	0.000349

---

run parameters: in water, 313.15 K
quantity kind: solubility (mole fraction)

N[C@@H](CC(=O)N1CCn2c(nnc2C(F)(F)F)C1)Cc1cc(F)c(F)cc1F	0.000542

---

run parameters: in ethyl acetate, 278.15 K
quantity kind: solubility (mole fraction)

N[C@@H](CC(=O)N1CCn2c(nnc2C(F)(F)F)C1)Cc1cc(F)c(F)cc1F	0.00986

---

run parameters: in THF, 288.15 K
quantity kind: solubility (mole fraction)

N[C@@H](CC(=O)N1CCn2c(nnc2C(F)(F)F)C1)Cc1cc(F)c(F)cc1F	0.0322

---

run parameters: in acetonitrile, 303.15 K
quantity kind: solubility (mole fraction)

N[C@@H](CC(=O)N1CCn2c(nnc2C(F)(F)F)C1)Cc1cc(F)c(F)cc1F	0.0681

---

run parameters: in sec-butanol, 293.15 K
quantity kind: solubility (mole fraction)

N[C@@H](CC(=O)N1CCn2c(nnc2C(F)(F)F)C1)Cc1cc(F)c(F)cc1F	0.00513

---

run parameters: in isopropanol, 298.15 K
quantity kind: solubility (mole fraction)

N[C@@H](CC(=O)N1CCn2c(nnc2C(F)(F)F)C1)Cc1cc(F)c(F)cc1F	0.0103

---

run parameters: in methyl acetate, 323.15 K
quantity kind: solubility (mole fraction)

N[C@@H](CC(=O)N1CCn2c(nnc2C(F)(F)F)C1)Cc1cc(F)c(F)cc1F	0.139
